assay-system: Hepatocyte growth factor receptor (Mus musculus, UniProt P16056)
Sequence (P16056 whole entry): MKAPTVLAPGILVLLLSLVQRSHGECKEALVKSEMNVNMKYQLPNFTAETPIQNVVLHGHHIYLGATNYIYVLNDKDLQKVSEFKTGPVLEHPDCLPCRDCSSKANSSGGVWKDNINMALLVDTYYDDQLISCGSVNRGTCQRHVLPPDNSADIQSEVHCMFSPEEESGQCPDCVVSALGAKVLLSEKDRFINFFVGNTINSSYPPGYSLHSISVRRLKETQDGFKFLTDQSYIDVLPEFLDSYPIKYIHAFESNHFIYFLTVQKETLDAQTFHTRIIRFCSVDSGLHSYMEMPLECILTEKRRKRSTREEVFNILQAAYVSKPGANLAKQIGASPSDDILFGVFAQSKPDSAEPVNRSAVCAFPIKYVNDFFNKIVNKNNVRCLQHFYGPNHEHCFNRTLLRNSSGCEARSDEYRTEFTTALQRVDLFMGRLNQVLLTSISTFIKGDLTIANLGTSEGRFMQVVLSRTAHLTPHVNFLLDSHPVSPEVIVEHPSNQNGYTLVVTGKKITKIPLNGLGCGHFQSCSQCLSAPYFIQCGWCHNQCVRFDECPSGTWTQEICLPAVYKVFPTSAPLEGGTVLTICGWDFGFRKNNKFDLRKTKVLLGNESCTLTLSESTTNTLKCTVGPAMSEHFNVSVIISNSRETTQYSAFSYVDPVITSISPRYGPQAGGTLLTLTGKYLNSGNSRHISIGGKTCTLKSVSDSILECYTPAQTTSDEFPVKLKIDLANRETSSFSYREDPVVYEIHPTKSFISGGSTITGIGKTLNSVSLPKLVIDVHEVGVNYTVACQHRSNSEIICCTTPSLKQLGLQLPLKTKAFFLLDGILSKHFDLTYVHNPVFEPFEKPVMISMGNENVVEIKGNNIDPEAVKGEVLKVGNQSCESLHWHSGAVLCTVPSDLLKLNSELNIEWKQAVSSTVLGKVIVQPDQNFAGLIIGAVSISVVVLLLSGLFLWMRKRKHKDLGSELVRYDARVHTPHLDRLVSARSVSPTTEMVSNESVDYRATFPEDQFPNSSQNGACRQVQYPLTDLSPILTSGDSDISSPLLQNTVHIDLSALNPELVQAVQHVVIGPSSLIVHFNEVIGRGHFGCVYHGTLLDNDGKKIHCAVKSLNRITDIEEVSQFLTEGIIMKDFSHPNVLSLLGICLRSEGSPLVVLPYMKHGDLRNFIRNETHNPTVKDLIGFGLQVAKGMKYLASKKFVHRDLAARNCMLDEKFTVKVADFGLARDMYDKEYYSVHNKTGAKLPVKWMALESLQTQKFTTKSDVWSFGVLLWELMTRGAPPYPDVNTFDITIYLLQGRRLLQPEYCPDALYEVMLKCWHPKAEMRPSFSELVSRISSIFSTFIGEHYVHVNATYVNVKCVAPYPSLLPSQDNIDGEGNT
readout: Ki (nM)
Your answer should be a plain number; it is taken to be in nM.

Bench note: what Ki did COc1ccc2c(Oc3ccc(NC(=O)c4c(C)n(CC(C)(C)O)n(-c5ccccc5)c4=O)nc3)ccnc2c1 show? 2

* * *

assay-summary: Intrinsic clearance in Beagle dog liver microsome
Format: ADME, Canis lupus familiaris
measurement-conditions: liver microsomes
readout: microsomal CLint (µL/min/mg)
Write it as a number; the unit µL/min/mg goes unstated.

Field request: microsomal CLint | item: COc1ccc2c(Oc3ccc(NC(=O)c4c(C)n(CC(C)(C)O)n(-c5ccccc5)c4=O)nc3)ccnc2c1 8
